system: HBV rcDNA in HepDE19 cells; assay: HepDE19 assay with bDNA quantitation of HBV rcDNA; format: cell-based, hepatitis B virus; conditions: Hepatitis B virus, HepDE19, HepDE19 assay, inhibition of rcDNA formation, bDNA quantitation; read-out: DE-19bDNA EC50
This section presents molecules with their documented EC50 values.
Respond with a number, then the unit of measure.

Example cases with answers are listed next.
>  <Structure Smiles String>
CN(C(=O)c1ccc2ocnc2c1)[C@@H]1COCc2[nH]c(=O)c3cc(F)c(F)cc3c21

>  <Test System>
HBV rcDNA in HepDE19 cells

>  <Endpoint Value>
90 nM

$$$$
>  <Structure Smiles String>
CN(C(=O)c1ccc(Br)c(F)c1F)[C@@H]1COCc2[nH]c(=O)c3cc(F)c(F)cc3c21

>  <Test System>
HBV rcDNA in HepDE19 cells

>  <Endpoint Value>
80 nM

$$$$
>  <Structure Smiles String>
CN(C(=O)c1cc2c(Cl)cc(F)cc2[nH]1)[C@@H]1COCc2[nH]c(=O)c3cc(F)c(F)cc3c21

>  <Test System>
HBV rcDNA in HepDE19 cells

>  <Endpoint Value>
10 nM

$$$$
>  <Structure Smiles String>
CN(C(=O)c1cc2nc(Cl)ccc2[nH]1)[C@@H]1COCc2[nH]c(=O)c3cc(F)c(F)cc3c21

>  <Test System>
HBV rcDNA in HepDE19 cells

>  <Endpoint Value>
630 nM

$$$$
>  <Structure Smiles String>
CN(C(=O)c1cc2c(Cl)nccc2[nH]1)[C@@H]1COCc2[nH]c(=O)c3cc(F)c(F)cc3c21

>  <Test System>
HBV rcDNA in HepDE19 cells

>  <Endpoint Value>
20 nM

$$$$

**Query** Answer with the recorded EC50 of CN(C(=O)c1cc2cc(F)ccn2c1)[C@@H]1COCc2[nH]c(=O)c3cc(F)c(F)cc3c21 only.
**Result** 10 nM

**Query** Answer with the recorded EC50 of CN(C(=O)c1cccc(Br)c1)[C@@H]1COCc2[nH]c(=O)c3cc(F)c(F)cc3c21 only.
**Result** 90 nM

Source: patent US20240228504A1
